# assay-info: yeast display, Sf9 membrane polyspecificity reagent, FACS + sequencing; frameworks hold sequencing errors
quantity: polyreactivity (PSR sort gate)

construct-sequence: QVQLVESGGGLVQAGGSLRLSCAASGFTLWLNAMGWYRQAPGKERELVAAITTSDDGTYYADSVKGRFTISRDNAKKTVYLQMNSLKPEDTAVYYCAADYYSVLYDYWGQGTQVTVSS
val: low polyreactivity
--
construct-sequence: QVQLVESGGGLVQAGGSLRLSCASSGSTFVSYVMGWYRQAPGKERELVARITISSGSTRYADSVKGRFTISRDNAKNTVYLQMNSLKPEDTAVSYCAVDAVDAFVFLSWDYDYWGQGTQVTVSS
val: low polyreactivity
--
construct-sequence: QVQLVESGGGLVQAGGSLRLSCAASGIIFPTYAMGWYRQAPGKERELVAAISVSGGTTSYADSVKGRFTISRDNAKNTVYLQMNSLKPEDTAVYYCAKRPFSTRYDYWGQGTQVTVSS
val: high polyreactivity
--
construct-sequence: QVQLVESGGGLVQAGGSLRLSCAASGGIFYLYAMGWYRQAPGKERELVASINWRSASTYYADSVKGRFTISRDNAKNTVYFQMNSLKPEDTAVYYCNVQWYGGYDYWGQGTQVTVSS
val: low polyreactivity
--
construct-sequence: QDQLVESGGGLVQAGGSLRLICAASGSNFGYYGMGWYRQAPGKEREFVAAITFSGGSTYYADSVKGRFTISRDNAKNTVYLQMNSLKPEDTAVYYFAAVYYGPYTYRHKMYYWGQGTQVTVSS
val: low polyreactivity
--
construct-sequence: QVQLVESGGGLVQAGGSLRLSCAASGSTFIYYAMGWYRQAPGKERELVAGISIRGGSTYADSVKGRFTISRDNAKNTVYLQKNSLKPEDTAVYFCNAYKRIKANGYAIRYYYWGQGTQVTVSS
val: high polyreactivity
--
construct-sequence: QVQLVESGGGLVQAGGSLRLSCAASGSIFEWYAMGWYRQAPGKERELVAAINSGGSTYYADSVKGRFTISRDNAKNTVYLQMNSLKPEDTAVYYCNADTLLQDRLGDWYDYDYWGQGTQVTVSS
val: low polyreactivity
--
construct-sequence: QVQLVESGGGLVQAGGSLRLSCAASGSTYIANPMGWYRQAPGKEREFLATISRRGGSTYYADSVKGRFTISRDNAKNTVYLQMNSLKPEDTAVYYCAARPLTYIRFRYYYWGQGTQVTVSS
val: high polyreactivity
--
construct-sequence: QVQLQESGGGQVQAGGSLRLSSAASGYIFAYNYMGWYRKAPGKERELVAAIVHGSTTNYADSVKGRFTISRDNAKNTVYLHMNNLKPEDTAVYYCAVDAERYYLHSYWGQGTQVTVSS
val: high polyreactivity
--
construct-sequence: QVQLVESGGGLVQAGGSLRLSCAASGFTISAYAMGWYRQAPGKERQLVASISRGGITNYADSVKGRFTISRDNAKNTVYLQMTSLKPEETAVYYCAAETRNHGILYDYWGQGTQVTVSS
val: high polyreactivity
--
construct-sequence: QVQLVESGGGLVQAGGSLRLSCSASGYTFPLYAMGWYRQAPGKERELVADINIGGASTYYADSVKGRFTISRDNAKNTVYLQMNSLKPEDTAVYYCAIQYYDGYFPTFEYDYWGQGTQVTVSS
val: low polyreactivity
--
construct-sequence: QFQLVESGGGLVQAGGSLRLSCAASGITFSFYAIVWYRQATGKERELVAAINGRGGRTYYADSVKGRFTISRDKAKNTFYLQMNSLKTEDTAVYFCAAVVWRTDYDYWGQGTQVTVSS
val: low polyreactivity
--
construct-sequence: QVQLVESGGGLVQAGGSLRLSCAASGRIFYQNVMGWYRQAPGKERELVAAITRRDVTTYADSVKGRFTISRDNAKNTVYLQMNSLKPEDTAVYYCNAVYYNWIGFDYWGQGTQVTVSS
val: low polyreactivity
--
construct-sequence: QVQLVESGGGLVQAGGSLRLSCAASGRIFIRYAMGWYRQAPGKERELVASISRNGGTTYYADSVKGRFTISRDNAQNTVYLQMNSLKPEDTAVYYCNTVHRSVDKAGYDYWGQGTQVTVSS
val: high polyreactivity
--
construct-sequence: QVQLVESGGGLVQAGGSLRLSCAASGRTFYRNARGWYRQAPGKERELVAVISSSGVRTYYADSVKGRFTISRDNAKNTVYLQRNSQKPEDTAVYYCAADSNSYYRGFDYWGQGTQVTVSS
val: high polyreactivity
--
construct-sequence: QVQLVESGGGLVQAGGSLRLSCAASGRIIYIYAMGWYRQAPGKERELVAAITASSGSTNYADSVKGRFTISRDNAKNTVYLQMNSLKPEDTAVYYCAAAPSRTLLRQSKYYYWGQGTQVTVSS
val: low polyreactivity
--
construct-sequence: QVQLVESGGGLVQAGGSLRLSCAASGSTFVRYAMGGYRQAPGKERELVAAISWSGASTYYADSVKGRFTISRDNAKNTVYLQMNSLKPEDTAVYYCAARSRWYDAAGYPKYYYWGQGTQVTVSS
val: high polyreactivity
--
construct-sequence: QVQLVESGGGLVQAGGSLRLSCAATGFIFPYYAMGLYRQAPGKEREMVAAITFSATRTYYADSVKGRFTISRDNAKNTVYLQMNSLKPEDTAVYYCNARGGVYGSYFEFNYWGQGTQVTVSS
val: low polyreactivity
--
construct-sequence: QVQLVESGGGLVQAGGSLRLSCAASGRTFFVNAMGWYRQAPGKERELVAGITRTGGTTYYADSVKGRFTISRDNAKNTVYLQMNSLKPEDTAVYYCAATPGGTDLGGGYYGFDYWGQGTQVTVSS
val: low polyreactivity
--
construct-sequence: QVQLVESGGGLVQAGGSLRLSCAASGSTFYLYAMGWYRQAPGKEREFVAAISWSGGRTYYADSVKGRFTISRDNAKNTVYLQMNSLKPEDTAVYYCAAKPLFGTRDDYWGQGTQVTVSS
val: low polyreactivity
--
construct-sequence: QVQLQESGGGLVQAGGSLCLSCAASGTIIFDGDMGWYRQAPGKEREFVAAINPGGSAYYADSVKGRLPLAAITHTVYLQMNCLKPEDTAVYYCAAKLFDVYGYYYWGQGTHVTVSS
val: low polyreactivity

* * *

# assay-info: yeast display, Sf9 membrane polyspecificity reagent, FACS + sequencing; frameworks hold sequencing errors
quantity: polyreactivity (PSR sort gate)

construct-sequence: QVQLVESGGGLVQAGGSLRLSCAASGRTFYPYAMGWYRKAPGKERELVAAITSDGSTNYADSVKGRFTISRDNAKNTVYLQMNSLKPEDTAVYYCATAGYSWVSYDYWGQGTQVTVSS
quantity: polyreactivity (PSR sort gate)
val: low polyreactivity
--
construct-sequence: QVQLVESGRGLDQAGGSLRLSCAASASTFAWYDMGCYRHAPGKEREFVAAIDYGGGSTYADSVKGRFTISRDNAKNTVYLQMNSLKPEDTAVYYCNADNWVYLYDYWGQGTQVTVSS
quantity: polyreactivity (PSR sort gate)
val: low polyreactivity
--
construct-sequence: QVQLVESGGGLVQAGGSLRLSCAASGLTFQYNAMGWYRQAPGKERELVAVISWSGGSTYYADSVKGRFTISRDNAMNTVYLQMNSLIPEDTAVYYCNAVGFVWYFDVYSYFTEFKYDYWGQGTQVTVSS
quantity: polyreactivity (PSR sort gate)
val: low polyreactivity
--
construct-sequence: QVQLVESGGGLVQAGGSLRLSCAASGFISFAYAMGWYRQAPGKERELVAGISRSGDSTYYADSVKGRFTISRDNAKNTVYLQMNSLKPEDTAVYYCAVVTYRSKAHSSRNGKYYYWGQGTQVTVSS
quantity: polyreactivity (PSR sort gate)
val: low polyreactivity
--
construct-sequence: QVQLVESGGGLVQAGGSLRLSCAASGSTLSVYAMGWYRQAPGKERELVAVISRSGGSTYYADSVKGRFTISRDNAKNTVYLQMNSLKPEDTAVYYCAARGRRTGDYDYWGQGTQVTVSS
quantity: polyreactivity (PSR sort gate)
val: high polyreactivity
--
construct-sequence: QVQLVESGGGLVQAGGSLRLSCAASGFTFGGYTMGWYRQAPGKERELVAAISRSGGSTYYADSVKGRFTISRDNAKNTVYLLMNSLKPEDTAVYYCAVTYSVRTYWYDYWGQGTQVTVSS
quantity: polyreactivity (PSR sort gate)
val: high polyreactivity
--
construct-sequence: QVQLVESGGGLVQAGGSLRLSCAASGSTFSVNAMGWYRQAPGKERELVAAITYSGGSTYYADSVKGRFTISRDNAKNTVYLQMNSLKPEDTAVYYCAAEARYWIYEYDYWGQGTQVTVSS
quantity: polyreactivity (PSR sort gate)
val: high polyreactivity
--
construct-sequence: QVQLVESGGGLVQAGGSLRLSCAASGRIGRYAMGWYRQAPGKERELVAAITWSGGSTYYADSVKGRFTISRDNAKNTVYLQMNSLKPEDTAVYYCATGRYRDQPRTGYDYWGQGTQVTVSS
quantity: polyreactivity (PSR sort gate)
val: high polyreactivity
--
construct-sequence: QVQLVESGGGLVEAGGSLRLSCAASGFIFSSYVMGWYRQAPGKERELVAAITSGNSTYYADSVKGRFTISRDNAKTTVYLQMNSLKPEDTAVSYCTADSYHTYYYWYDYWGQGTQVTVSS
quantity: polyreactivity (PSR sort gate)
val: low polyreactivity
--
construct-sequence: QVQLVESGGGFVQAGGSLRLSCAASGLTFVANAMGWYRQAPGTESEMVAGITQTGGSTYYADSVKGRFTISRDNAKNTVYLQMISLKPEDTAVYYCAATYRRLRYGKLYYYWGQGTQVTVSS
quantity: polyreactivity (PSR sort gate)
val: high polyreactivity
--
construct-sequence: QVQLVESGGGLFQAGGSLRLSSAASGFIFWTNVMGWYRQQPGKVRELVAGISKSGGSTYYADSVKGRFTISRDNAKNTVYLQMNCLKPEDTAVYYCAAPRPPAGRYGYWGQGTQVTVSS
quantity: polyreactivity (PSR sort gate)
val: high polyreactivity
